The measured values listed here are drawn from paper PMC12136788.

Kindly supply the reported binding signal values for the records listed here.
- ASSAY TARGET: T1, UNK ZnF1-3 (human, UniProt Q9C0B0 31-174)
- T1 sequence: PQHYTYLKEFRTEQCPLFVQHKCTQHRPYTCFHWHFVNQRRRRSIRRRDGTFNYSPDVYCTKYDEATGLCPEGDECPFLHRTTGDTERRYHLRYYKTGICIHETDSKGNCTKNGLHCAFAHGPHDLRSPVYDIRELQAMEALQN
- TEST PROTOCOL: nsRBNS (natural sequence RNA bind-n-seq); RBNS binding buffer (assumed for nsRBNS): 25 mM Tris pH 7.5, 150 mM KCl, 3 mM MgCl2, 0.01% Triton X-100, 500 ug/ml BSA, 20 U/ml SUPERase-In, 4 C; UNK is unkempt and MSI1 is Musashi-1; names of the RNAs are library labels; protein concentration not given here; high values mean tight binding
The full ranking holds about 24,000 sequences; the median of “enrichment r” is about 0.99, and the highest 2% start at about 3.7. Many of the other results were omitted from the sample, so the highest values are more common in it than they were.
Please state the figure in enrichment R; there is no need to write the unit.

IN: Return reported binding signal; argument: chr7:26237324:26237325:-_ENSG00000122566_ENST00000356674|hu_mus|FALSE|FALSE (ssRNA) RNA: GGGAGUUCUACAGUCCGACGAUCCUCAUAGUAGUUUCUCAAACUUUCUUCUGUGGUUUCAAAGCUUAAGCCACCAAUAAAGAGCUUUCGGAACUGUUCCUUUUCUCUCUUUUUCCUCUCCAAAGGAACAGUUUCUAAAGUUUUCAACAGAGGAUUGAGCAUCA
OUT: 0.272

IN: Return reported binding signal; argument: chr1:225611761:225611762:-_ENSG00000143815_ENST00000272163|hu_mus|hu_hu_hu_mus_True|38_48 (ssRNA) RNA: GGGAGUUCUACAGUCCGACGAUCCCAGGCCAUCGGCCUCUGACCACUUCACCCUCAACAAACUUCCUACUUGGCAUUUUCUAAAAUUAACCUGCGCCAGGUUCCGGGGGAACUCCAGCCACUCCAGGACAGUCACCAGCAGCCCAACAGAGGAUUGAGCAUCA
OUT: 1.33
